Values were extracted from patent EP4680608B1.

Overview of recorded IC50 for various compounds
Target: Human DHODH (Homo sapiens, UniProt Q02127)
Construct: C-terminal His6-tagged HsDHODH residues 29-395 in pET-22b (start ^29MATGDE); His6 (C)
Sequence (Q02127 29-395): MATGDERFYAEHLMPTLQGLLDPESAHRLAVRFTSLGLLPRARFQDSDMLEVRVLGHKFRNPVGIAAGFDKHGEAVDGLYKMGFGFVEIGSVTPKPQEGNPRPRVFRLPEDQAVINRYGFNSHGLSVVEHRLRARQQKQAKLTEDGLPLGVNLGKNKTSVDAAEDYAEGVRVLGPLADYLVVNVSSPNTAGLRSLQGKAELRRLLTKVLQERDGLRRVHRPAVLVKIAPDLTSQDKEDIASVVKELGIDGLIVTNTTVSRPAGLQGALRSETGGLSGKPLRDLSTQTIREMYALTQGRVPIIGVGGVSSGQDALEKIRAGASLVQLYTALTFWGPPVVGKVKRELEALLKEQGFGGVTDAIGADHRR
Test: DHODH inhibition, steady-state DCIP assay (human DHODH)
Conditions: recombinant HsDHODH, DCIP method, 25°C, 5 nM enzyme; top concentration 100 µM or 30 µM

{"compound": "CCC(O)(c1cnc(C(F)(F)F)c(Cl)c1)c1c2cc(C)n(C3CC3)c(=O)c2nn1C (stereo not shown)", "displayUnit": "µM", "IC50": 14}
{"compound": "CC[C@@](N)(c1ccc(F)c(Cl)c1)c1c2ncn(C3CC3)c(=O)c2nn1C (single isomer, unassigned)", "displayUnit": "µM", "IC50": 4.6}
{"compound": "Cn1nc2c(=O)n(C3CC3)cnc2c1[C@](N)(c1ccc(C(F)(F)F)c(Cl)c1)C1CC1 (single isomer, unassigned)", "displayUnit": "µM", "IC50": 3.2}
{"compound": "CCn1ccc2c([C@](O)(c3ccc(F)c(Cl)c3)C3CC3)n(C)nc2c1=O (single isomer, unassigned)", "displayUnit": "µM", "IC50": 88}

====

Test system: P. falciparum 3D7
Assay: Asexual blood-stage growth inhibition assay, SYBR green method
Format: cell-based
Details: Plasmodium falciparum, 3D7, 72 h, ring-stage 3D7 parasites
# note: exactly 3 nM is not below, so it is N; use Y for EC50 strictly under it

{"compound": "Cn1nc2c(=O)n(C3CC3)ccc2c1[C@](O)(c1cnc(C(F)(F)F)c(Cl)c1)C(F)(F)F (single isomer, unassigned)", "answerLabel": "Y"}
{"compound": "CC[C@@](O)(c1ccc(C(F)(F)F)nc1)c1c2ccn(C3CC3)c(=O)c2nn1C (single isomer, unassigned)", "answerLabel": "Y"}
{"compound": "CC[C@@](N)(c1ccc(C(F)(F)F)c(F)c1)c1c2ccn(C3CC3)c(=O)c2nn1C (single isomer, unassigned)", "answerLabel": "N"}
{"compound": "CCn1cc(C)c2c([C@H](N)c3ccc(C(F)(F)F)c(C#N)c3)n(C)nc2c1=O (single isomer, unassigned)", "answerLabel": "N"}
{"compound": "CCn1cnc2c([C@](C)(O)c3ccc(C(F)(F)F)c(C#N)c3)n(C)nc2c1=O (single isomer, unassigned)", "answerLabel": "Y"}
{"compound": "Cn1nc2c(=O)n(C3CC3)cnc2c1[C@](O)(c1cnc(C(F)(F)F)c(Cl)c1)C(F)(F)F (single isomer, unassigned)", "answerLabel": "Y"}

====

System: P. falciparum 3D7
Experiment: Asexual blood-stage growth inhibition assay, SYBR green method
Assay type: cell-based
Conditions: Plasmodium falciparum, 3D7, 72 h, ring-stage 3D7 parasites
pEC50: −log10 of the molar value.
Overview of recorded pEC50 for various compounds
measuredEndpoint: pEC50

{"compound": "CCn1ccc2c([C@](C)(O)c3ccc(C(F)(F)F)c(Cl)c3)n(C)nc2c1=O (single isomer, unassigned)", "measuredEndpoint": "pEC50", "valueReported": 9.70}
{"compound": "CCn1cc(C)c2c([C@H](O)c3ccc(Cl)c(F)c3)n(C)nc2c1=O (single isomer, unassigned)", "measuredEndpoint": "pEC50", "valueReported": 8.15}
{"compound": "Cn1nc2c(=O)n(C3CC3)cnc2c1[C@](O)(c1ccc(C(F)(F)F)c(Cl)c1)C(F)(F)F (single isomer, unassigned)", "measuredEndpoint": "pEC50", "valueReported": 10.34}
{"compound": "CC[C@@](N)(c1cnc(C(F)(F)F)c(Cl)c1)c1c2ncn(C3CC3)c(=O)c2nn1C (single isomer, unassigned)", "measuredEndpoint": "pEC50", "valueReported": 8.19}
{"compound": "Cn1nc2c(=O)n(C3CC3)cnc2c1[C@](N)(c1ccc(C(F)(F)F)c(Cl)c1)C1CC1 (single isomer, unassigned)", "measuredEndpoint": "pEC50", "valueReported": 8.68}
{"compound": "CCn1ccc2c([C@](O)(c3cnc(C(F)(F)F)c(Cl)c3)C3CC3)n(C)nc2c1=O (single isomer, unassigned)", "measuredEndpoint": "pEC50", "valueReported": 8.62}
{"compound": "Cn1nc2c(=O)n(CC(F)(F)F)cnc2c1[C@](O)(c1ccc(C(F)(F)F)c(Cl)c1)C(F)(F)F", "measuredEndpoint": "pEC50", "valueReported": 9.41}
{"compound": "CCn1cc(C2CC2)c2c([C@H](O)c3cnc(C(F)(F)F)c(Cl)c3)n(C)nc2c1=O (single isomer, unassigned)", "measuredEndpoint": "pEC50", "valueReported": 8.34}
{"compound": "CCn1nc2c(=O)n(C3CC3)ncc2c1[C@@](O)(CC)c1cnc(C(F)(F)F)c(Cl)c1 (single isomer, unassigned)", "measuredEndpoint": "pEC50", "valueReported": 8.00}
{"compound": "Cn1nc2c(=O)n(C3CC3)ncc2c1[C@](N)(c1ccc(C(F)(F)F)c(Cl)c1)C1CC1 (single isomer, unassigned)", "measuredEndpoint": "pEC50", "valueReported": 8.13}
{"compound": "Cn1nc2c(=O)n(C3CC3)ncc2c1[C@](O)(c1cnc(C(F)(F)F)c(Cl)c1)C(F)(F)F (single isomer, unassigned)", "measuredEndpoint": "pEC50", "valueReported": 8.42}
{"compound": "CCn1ccc2c([C@](C)(O)c3ccc(F)c(Cl)c3)n(C)nc2c1=O (single isomer, unassigned)", "measuredEndpoint": "pEC50", "valueReported": 9.38}
{"compound": "CC[C@@](O)(c1cc(F)c(Cl)c(F)c1)c1c2ccn(C3CC3)c(=O)c2nn1C (single isomer, unassigned)", "measuredEndpoint": "pEC50", "valueReported": 9.30}
